system: HS 578T breast; experiment: NCI-60 one-dose screen, 48 h (100 = growth as untreated, 0 = no growth, -100 = all killed); conditions: 10 µM unless noted
This is part of a sample that, as a whole, favours compounds with a hit. Of some 83,000 tested, about 20% had one in any assay.
Labelling field: enter YES if recorded growth is less than 70%. Enter NO if it equals or exceeds that cut-off.

Below are worked cases with known answers.
INSERT INTO measurements (compound, class) VALUES
  ('O=c1ccc2nc(-c3ccccc3)nn(-c3ccccn3)c-2c1', 'NO'),
  ('O=C1c2c(c3c4cc(F)ccc4oc3c3[nH]c4ccccc4c23)C(=O)N1O', 'YES'),
  ('C#CCOc1cccc(-c2ncnc3cc(NC(=O)CCl)ccc23)c1', 'YES'),
  ('C=CCn1c(SCC(=O)Nc2ccc(C(=O)/C=C/c3ccc(Cl)cc3)cc2)nnc1-c1ccc(Cl)c(Cl)c1', 'NO'),
  ('Cc1ccccc1NC(=O)c1sc2nc3c(cc2c1N)CCCC3', 'YES');

Dear reviewer, please state whether COc1cc2c(c(OC)c1OC)CCC(c1cccc(C(=O)Nc3ccc([N+](=O)[O-])cc3)c1)O2 (centres undefined) has growth strictly beneath 70%.
NO

Determine if Cc1c(-c2cnc3ccc(Cl)cc3c2C(=O)O)nnn1-c1ccc(Cl)cc1 shows growth strictly lower than 70%.
NO

# strict comparison: is reported growth < 70%? input = C=C(CNCCO)[C@@H]1CC[C@]2(CO)CC[C@]3(C)[C@H](CC[C@@H]4[C@@]5(C)CCC(NCCO)C(C)(C)[C@@H]5CC[C@]43C)[C@@H]12 (some centres undefined)
NO

For this compound, is growth lower than 70%? C#CCOc1cccc(Nc2c(Cl)c(CCl)nc3ccc(Oc4ccccc4)cc23)c1
NO

====

test system: U251 CNS; test: NCI-60 one-dose screen, 48 h; conditions: 10 µM unless noted
About 83,000 compounds went through this panel and 20% of them were active in at least one assay; those are over-represented in the sample as a whole. Calls of active or inactive are those of the source. Rule for the calls: active = growth percent below 10; inactive = the rest.
Give one outcome, nothing more. List: class 1 (active), class 0 (inactive)

Example entries and their recorded answers appear below.
INSERT INTO assay_data (compound, class) VALUES
  ('Cc1c2ccncc2c(C)c2c1c1ccccc1n2CCCCCC(=O)O', 'class 0'),
  ('O=C(Nc1ccc2c(c1)-c1ccccc1C2)C1CC(=O)N(c2ccc3c(c2)OCO3)C1 (stereo not drawn)', 'class 0'),
  ('CN1/C(=C/C=C/c2n(Cc3ccc4ccccc4c3)c(Cl)c(Cl)[n+]2Cc2ccc3ccccc3c2)Oc2ccccc21', 'class 1'),
  ('CC1=NC(=S)NC(c2ccccc2)/C1=C1/CC(c2ccccc2O)NN1 (stereo not drawn)', 'class 0'),
  ('C=C(C)[C@@H]1CC[C@]2(C(=O)NC(C)=O)CC[C@]3(C)[C@H](CC[C@@H]4[C@@]5(C)CCCNC(C)(C)[C@@H]5CC[C@]43C)[C@@H]12', 'class 1');

Turning to the following compound.
Assay outcome for O=C(O)/C=C\C(=O)Nc1ccc2c(c1)Cc1cc(F)ccc1-2 : what was it?
class 0

====

Quick list: growth per entry.
tested on: OVCAR-8 ovarian; experiment: NCI-60 one-dose screen, 48 h (100 = growth as untreated, 0 = no growth, -100 = all killed); details: 10 µM unless noted
This is part of a sample that, as a whole, favours compounds with a hit. Of some 83,000 tested, about 20% had one in any assay.
Value expressed in %; do not type the unit.

// worked examples, growth included
INSERT INTO results (smiles_representation, readout_value) VALUES
  ('CCNCCNc1c(C)c(-c2ccc(C(F)(F)F)cc2)c(C#N)c2nc3ccccc3n12', 95.3),
  ('O=C(O)CCCN1C(=O)CSC1=S', 105),
  ('COC(=O)CCc1c(/C=C2\N=C(c3ccc[nH]3)C=C2OC)[nH]c(C)c1C(=O)OCc1ccccc1', 7.03),
  ('Cn1ccnc1C(=O)/C=C/c1ccc(C(=O)Nc2ccccc2F)cc1', 15.6);

Now, please, on to the next compound.
What value of measured growth is listed for Nc1ncc(-c2ccc3ncnc(N4CCc5cc(F)c(Cl)cc54)c3c2)cc1C(F)(F)F ?
33.1

====

# maps each entry to its growth
system: TK-10 renal; test: NCI-60 one-dose screen, 48 h (100 = growth as untreated, 0 = no growth, -100 = all killed); details: 10 µM unless noted
This is part of a sample that, as a whole, favours compounds with a hit. Of some 83,000 tested, about 20% had one in any assay. Active and inactive are the calls of the source. The calls were made as follows: active = growth percent below 10; inactive = the rest.

Solved cases below.
INSERT INTO assay_data (compound, value_kind, readout_value) VALUES
  ('COc1cc(/C=C/c2cc(/C=C/c3ccc(O)c(OC)c3)n(C(=O)Nc3ccc(C)cc3C)n2)ccc1O', 'growth', '15.9% (inactive)'),
  ('C=CCOC(=O)C1=C(C)N(CC)C(=O)N(CC)C1c1c(Cl)n(C)c2ccccc12 (configuration not stated)', 'growth', '94.1% (inactive)'),
  ('O=c1ccc2nc(-c3ccccc3)nn(-c3ccccn3)c-2c1', 'growth', '-83.4% (active)'),
  ('C=CCn1c(SCC(=O)Nc2ccc(C(=O)/C=C/c3cc(OC)c(OC)c(OC)c3)cc2)nnc1-c1cc(-c2ccc(S(N)(=O)=O)cc2)nc2ccccc12', 'growth', '141% (inactive)');

What growth value was documented for this compound, CN1CC(c2ccccc2)C(C(=O)c2ccc(Br)cc2)C12C(=O)Nc1ccccc12 (configuration not stated) ?
109% (inactive)

What value of measured growth is listed for O=c1oc2ccccc2cc1-c1nn(-c2ccccc2)cc1/C=N/Nc1nc(-c2ccccc2)c(N=Nc2ccccc2)s1 ?
95.1% (inactive)

Consider the compound Cc1c(Cl)cccc1NC(=O)c1sc2nc3c(cc2c1N)CCCC3 and give its measured growth.
62.2% (inactive)

Any idea what its growth is? The compound is NC(=N\N=C/c1ccc(Cl)cc1Cl)/C(N)=N\N=C/c1ccc(Cl)cc1Cl
29.7% (inactive)

Query: growth; subject: Cc1ccc(Nc2cc(N)nc(N)n2)cc1
108% (inactive)

====

Test system: 786-0 renal
Experiment: NCI-60 one-dose screen, 48 h
Conditions: 10 µM unless noted
Procedure: Cells are grown in 96 well plates and exposed to the test compound for 48 hours. Compounds are tested at a single concentration, which is 10^-5 M for most compounds. The reported endpoint is percent growth (GI% or GIPRCNT), where numbers from 0 - 100% represent growth inhibition, and numbers from -100% - 0 represent cell death. For example, a value of 40 represents 60% growth inhibition. A value of 0 means no net growth occurred over the course of the experiment. […]
About 83,000 compounds went through this panel and 20% of them were active in at least one assay; those are over-represented in the sample as a whole. Active and inactive are the calls of the source. The calls were made as follows: active = growth percent below 10; inactive = the rest.
A correct response names exactly one class from Y for active, N for inactive

Use the examples below as a reference point.
INSERT INTO assay_data (compound, class) VALUES
  ('Cc1[nH]c(C(=O)Nc2ccccc2OC2CCNC2)c(Cl)c1Cl (stereo unspecified)', 'N'),
  ('CCOC(=O)c1c(C)n2c(=O)cc(C)c3c(OC(C)=O)c(OC(C)=O)cc1c32', 'N'),
  ('COC(=O)c1cc(-c2ccc(OC)c(OC)c2)[nH]c1N/N=C/c1c(Cl)cccc1Cl', 'Y'),
  ('O=C1c2ccccc2-c2c1c1ccncc1c(=O)n2CCCn1ccnc1', 'N'),
  ('Cn1cc(-c2nc(-c3c[nH]c4ccncc34)cs2)c2cc(F)ccc21', 'Y'),
  ('Cc1oc2ccc(O)c(CN3CCCCCC3)c2c1C(=O)Nc1ccc(C(F)(F)F)cc1', 'N');

Field: outcome | Entry: CC(CN)[C@@H]1CC[C@]2(CO)CC[C@]3(C)[C@H](CC[C@@H]4[C@@]5(C)CCC(NCCO)C(C)(C)[C@@H]5CC[C@]43C)[C@@H]12 (stereo partly specified)
N

Which result was noted for this compound in the test: O=C(/C=C/c1ccco1)c1ccc(Nc2ccnc3cc(Cl)ccc23)cc1
N

// return assay outcome for CCCCC/C=C/CCC(=O)N[C@H]1[C@H](Oc2c3cc4cc2Oc2ccc(cc2Cl)[C@@H](O[C@@H]2O[C@H](CO)[C@@H](O)[C@H](O)[C@H]2NC(C)=O)[C@@H]2NC(=O)[C@H](NC(=O)[C@@H]4NC(=O)[C@H]4NC(=O)[C@@H](Cc5ccc(c(Cl)c5)O3)NC(=O)[C@@H](N)c3ccc(O)c(c3)Oc3cc(O)cc4c3)c3ccc(O)c(c3)-c3c(O[C@H]4O[C@H](CO)[C@@H](O)[C@H](O)[C@@H]4O)cc(O)cc3[C@H](C(=O)O)NC2=O)O[C@H](CO)[C@H](O)[C@@H]1O
N

Write down the call the test reported for this compound. Item: C=CCn1c(SCC(=O)Nc2ccc(C(=O)/C=C/c3ccc(Cl)cc3)cc2)nnc1-c1ccc(Cl)c(Cl)c1
N

So what was the verdict on O=C(OCC(O)(CO)C(=O)NC12CC3CC(CC(C3)C1)C2)c1ccc(Cl)cc1 (stereo unspecified) in this test?
N

Tell me the recorded outcome of this test for O=C(Nc1ccc2c(c1)-c1ccccc1C2)C1CC(=O)N(c2ccc3c(c2)OCO3)C1 (stereo unspecified) .
N

Dear all, I need the recorded test outcome for Cc1ccc(Nc2nc(N)nc(N)c2N=O)cc1Cl , thank you.
N

How was CN(C)C(=S)NN=C(c1ccccn1)c1ccccn1 classified in this test?
N

Field: outcome | Entry: CCOC(=O)c1c(N)sc2cc(O)ccc12
N
